Values compiled from patent US8106072B2.

tested on: S. pneumoniae Type III; experiment: In vitro antibacterial activity (MIC, agar plate dilution); assay type: cell-based; settings: Streptococcus pneumoniae, Muller-Hinton agar supplemented with 5% defibrinated horse blood
// reported MIC per item
Reported endpoint: MIC (µg/mL)

# Compound, Reported endpoint, Qualifying sign, Measured value
measured = [
    ("COc1c(N2C[C@@H](CNC3CC3)[C@H](C)C2)ccc2c(=O)c(C(=O)O)cn(C3CC3)c12", "MIC", "=", 125),
    ("O=C(O)c1cn(C2CC2)c2c(OC(F)F)c(N3C[C@H](CNC4CC4)[C@H](F)C3)c(F)cc2c1=O", "MIC", "=", 16),
    ("COc1c(N2C[C@H](CNC3CC3)[C@H](F)C2)c(F)cc2c(=O)c(C(=O)O)cn(C3CC3)c12", "MIC", "≤", 8),
    ("COc1c(N2C[C@H](CNC3CC3)[C@@H](F)C2)c(F)cc2c(=O)c(C(=O)O)cn(C3CC3)c12", "MIC", "≤", 8),
    ("COc1c(N2C[C@H](CNC3CC3)[C@H](F)C2)ccc2c(=O)c(C(=O)O)cn(C3CC3)c12", "MIC", "=", 31),
    ("COc1c(N2C[C@@H](CNC3CC3)[C@H](C(F)(F)F)C2)c(F)cc2c(=O)c(C(=O)O)cn(C3CC3)c12 (relative stereo)", "MIC", "=", 63),
    ("O=C(O)c1cn(C2CC2)c2c(OC(F)F)c(N3C[C@H](CNC4CC4)[C@H](F)C3)ccc2c1=O", "MIC", "=", 63),
    ("COc1c(N2C[C@H](CNC3CC3)[C@@H](C)C2)ccc2c(=O)c(C(=O)O)cn(C3CC3)c12", "MIC", "=", 63),
    ("COc1c(N2C[C@@H](CNC3CC3)[C@H](C)C2)c(F)cc2c(=O)c(C(=O)O)cn(C3CC3)c12 (relative stereo)", "MIC", "=", 31),
]
